Molecular target: Aurora-A (Mus musculus, UniProt P97477);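 also: His-tagged mouse Aurora-A phosphorylating a biotinylated peptide captured on streptavidin plates, read as 33P uptake by scintillation counting, 1% DMSO, inhibition scaled between per-plate maximum and minimum signals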
Sequence (P97477 1-395): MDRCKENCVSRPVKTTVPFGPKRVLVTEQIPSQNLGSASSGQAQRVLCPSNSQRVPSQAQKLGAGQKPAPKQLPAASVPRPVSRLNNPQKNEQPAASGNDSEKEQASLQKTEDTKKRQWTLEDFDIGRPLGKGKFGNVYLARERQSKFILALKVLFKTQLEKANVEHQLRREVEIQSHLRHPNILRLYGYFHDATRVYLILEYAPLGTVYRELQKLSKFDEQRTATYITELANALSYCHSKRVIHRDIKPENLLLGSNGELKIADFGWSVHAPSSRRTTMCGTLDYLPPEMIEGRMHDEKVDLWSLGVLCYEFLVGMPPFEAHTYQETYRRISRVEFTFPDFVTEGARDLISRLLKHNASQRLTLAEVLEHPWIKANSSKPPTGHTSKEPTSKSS
pIC50: −log10 of the molar value.
Experimental readout: pIC50

See these solved cases before continuing.
Smi: CN1CCN(C(=O)c2cccc3[nH]c(-c4n[nH]c5ncc(-c6cncc7ccccc67)cc45)nc23)CC1
pIC50: 4.96
//
Smi: COc1ccc2nc(-c3n[nH]c4ncc(-c5cccnc5)cc34)[nH]c2c1
pIC50: 6.55
//
Smi: Cc1ccccc1NC(=O)c1cccc2[nH]c(-c3n[nH]c4ncc(-c5cncc6ccccc56)cc34)nc12
pIC50: 6.64

A = COCc1cccc2[nH]c(-c3n[nH]c4ncc(-c5cncc(CNCCN6CCOCC6)c5)cc34)nc12
B = CN(C)Cc1cncc(-c2cnc3[nH]nc(-c4nc5cc(N6CCN(C)CC6)ccc5[nH]4)c3c2)c1
C = CCCCNCc1cncc(-c2cnc3[nH]nc(-c4nc5c(COC)cccc5[nH]4)c3c2)c1
Input: List by increasing pIC50. Order the labels as requested and give them as your answer.
Output: A, C, B

Just for reference, patent US7541367B2 is where these values come from.
